assay: Partition coefficient (logP); assay type: physicochemical; conditions: octanol/water
readout.name: logP
Lab note: jot down the number only; don't add units.

# input Give logP for COc1cc(CCN)cc(OC)c1OC [MESCALINE]
# output 3.15

----------
molecular target: 5-hydroxytryptamine receptor 2B (Homo sapiens, UniProt P41595); test: Antagonist activity at cloned human 5-hydroxytryptamine 2B receptor using [3H]- rauwolscine radioligand
Sequence (P41595 whole entry): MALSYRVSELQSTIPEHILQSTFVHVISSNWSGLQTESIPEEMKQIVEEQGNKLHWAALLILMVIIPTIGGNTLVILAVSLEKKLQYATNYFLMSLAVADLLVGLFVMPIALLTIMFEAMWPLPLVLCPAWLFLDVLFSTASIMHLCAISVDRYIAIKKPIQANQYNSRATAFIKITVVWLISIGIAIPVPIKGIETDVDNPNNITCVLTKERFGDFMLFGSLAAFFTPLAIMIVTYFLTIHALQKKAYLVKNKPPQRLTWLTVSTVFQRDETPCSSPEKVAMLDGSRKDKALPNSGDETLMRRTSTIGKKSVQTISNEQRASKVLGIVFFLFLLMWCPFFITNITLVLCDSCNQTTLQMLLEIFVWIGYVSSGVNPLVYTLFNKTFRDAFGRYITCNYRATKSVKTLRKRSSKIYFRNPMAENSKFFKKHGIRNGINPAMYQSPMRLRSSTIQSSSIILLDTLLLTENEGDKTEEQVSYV
readout.name: Ki

# input Using the record for COc1c2c(c(CCN)c3c1OCC3)CCO2 , state its measured Ki.
# output 205 nM

----------
molecular target: 5-hydroxytryptamine receptor 2A (Rattus norvegicus)
Reported pKi values for the following molecules.
Interpret pKi as the negative base-10 log of the concentration measured in mol/L.

# input Under 5-hydroxytryptamine receptor 2A (Rattus norvegicus), report pKi for COc1cc(CCN)cc(OC)c1OC
# output 5.26

# input Print 5-hydroxytryptamine receptor 2A (Rattus norvegicus) pKi for COc1cc(CCN)c2c(c1OC)OCC2 .
# output 5.60

# input Provide pKi, recorded with 5-hydroxytryptamine receptor 2A (Rattus norvegicus), of CCOc1c(OC)cc(CCN)cc1OC
# output 5.68

----------
molecular target: 5-hydroxytryptamine receptor 2A (Rattus norvegicus, UniProt P14842); experiment: Effect on phosphoinositide hydrolysis in NIH 3T3 fibroblast expressing 5-hydroxytryptamine 2A receptor; format: functional
Sequence (P14842 whole entry): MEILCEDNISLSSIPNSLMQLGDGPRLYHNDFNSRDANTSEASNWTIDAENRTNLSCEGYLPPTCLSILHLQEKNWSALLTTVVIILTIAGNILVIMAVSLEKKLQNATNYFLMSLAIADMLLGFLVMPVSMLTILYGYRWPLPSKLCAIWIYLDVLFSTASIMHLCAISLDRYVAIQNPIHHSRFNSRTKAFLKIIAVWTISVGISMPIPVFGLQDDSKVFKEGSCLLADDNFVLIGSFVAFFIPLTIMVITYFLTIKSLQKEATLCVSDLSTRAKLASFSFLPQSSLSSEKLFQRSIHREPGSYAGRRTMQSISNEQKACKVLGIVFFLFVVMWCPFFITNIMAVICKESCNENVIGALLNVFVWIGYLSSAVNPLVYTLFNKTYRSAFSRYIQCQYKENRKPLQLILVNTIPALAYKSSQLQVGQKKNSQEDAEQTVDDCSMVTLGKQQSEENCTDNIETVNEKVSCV
readout.name: pEC50
Remember, pEC50 is on a log scale: it is -log10 of the molar concentration.

# input Print 5-hydroxytryptamine receptor 2A (Rattus norvegicus, UniProt P14842) pEC50 for COc1cc(CCN)c2c(c1OC)OCC2 .
# output 5.52

----------
Target: UniProtKB P19327
Sequence (P19327 whole entry): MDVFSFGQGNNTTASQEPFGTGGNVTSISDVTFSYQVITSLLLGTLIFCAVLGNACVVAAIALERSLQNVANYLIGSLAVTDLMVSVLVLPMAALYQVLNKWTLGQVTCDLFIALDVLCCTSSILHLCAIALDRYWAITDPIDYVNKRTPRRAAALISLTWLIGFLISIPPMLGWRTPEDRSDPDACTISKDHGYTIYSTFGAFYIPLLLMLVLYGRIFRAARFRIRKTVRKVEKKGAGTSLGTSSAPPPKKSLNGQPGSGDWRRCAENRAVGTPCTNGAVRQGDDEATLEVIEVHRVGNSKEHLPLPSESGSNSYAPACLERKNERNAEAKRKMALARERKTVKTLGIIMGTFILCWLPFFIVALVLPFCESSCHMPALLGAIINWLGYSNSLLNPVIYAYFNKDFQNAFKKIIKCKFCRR
readout.name: pKi
In textbook form, pKi equals minus log to base ten of the concentration in mol/L.

Some entries whose results are on file:
1) COc1cc(CCN)cc(OC)c1OC :: 5.16
2) COc1cc(CCN)c2c(c1OC)OCC2 :: 5.21

Now for another entry.
# input For the compound CCOc1c(OC)cc(CCN)cc1OC , give its measured pKi value.
# output 5.16

----------
biological target: 5-hydroxytryptamine receptor 2C (Rattus norvegicus, UniProt P08909); assay: Effect on phosphoinositide hydrolysis in NIH 3T3 fibroblast 5-hydroxytryptamine 2C receptor
Sequence (P08909 whole entry): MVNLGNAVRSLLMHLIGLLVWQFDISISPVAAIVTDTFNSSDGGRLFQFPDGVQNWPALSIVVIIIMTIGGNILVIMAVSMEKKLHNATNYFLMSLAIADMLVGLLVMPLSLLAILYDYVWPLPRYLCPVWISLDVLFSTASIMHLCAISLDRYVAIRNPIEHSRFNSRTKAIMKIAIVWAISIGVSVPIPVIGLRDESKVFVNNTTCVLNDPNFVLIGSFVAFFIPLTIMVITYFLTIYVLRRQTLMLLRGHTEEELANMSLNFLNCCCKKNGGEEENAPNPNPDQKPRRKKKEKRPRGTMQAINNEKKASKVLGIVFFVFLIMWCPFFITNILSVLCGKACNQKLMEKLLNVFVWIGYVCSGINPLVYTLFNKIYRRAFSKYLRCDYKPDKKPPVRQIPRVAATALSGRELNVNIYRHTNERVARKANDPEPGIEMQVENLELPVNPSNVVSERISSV
readout.name: pEC50
Lab note — pEC50 values are minus log10 of concentrations in M.

Please review the entries below; each comes with its answer.
1. CCOc1c(OC)cc(CCN)cc1OC :: 5.70
2. COc1cc(CCN)cc(OC)c1OC :: 4.62

# input // fetch pEC50 given entry COc1c2c(c(CCN)c3c1OCC3)CCO2
# output 6.00

# input Tell us which pEC50 value is on record for COc1cc(CCN)c2c(c1OC)OCC2
# output 5.70
